- Test system: E. coli TESEC Alr+ wild-type control
- PROCEDURE TEXT: growth (OD600 after 10 h); higher = more growth (less inhibition)
- TEST PARAMETERS: compound 0.1 mM; raw OD600 reference: median of DMSO wells 0.49, cell-free background 0.052
Counter-ions that a name gives are not always drawn.
Threshold rule: growth greater than or equal to 0.5 is condition met; below that, condition not met.

O=C(O)c1cc(-c2ccc(F)cc2F)ccc1O [Diflunisal] ... condition not met
CC(C)(C(=O)c1cccnc1)c1cccnc1 [Metyrapone] ... condition met
C#CCN(C)Cc1ccccc1 [Pargyline hydrochloride] ... condition met

# bool: growth of CCC1(C)CC(=O)NC1=O (centres undefined) [Ethosuximide] >= 0.5
condition not met

Reported growth at or above 0.5? Nc1nc(N)c2nc(-c3ccccc3)c(N)nc2n1 [Triamterene]
condition not met

Decide: is the reported value of growth for CC(C)(C(=O)O)c1ccc(C(O)CCCN2CCC(C(O)(c3ccccc3)c3ccccc3)CC2)cc1 (centres undefined) [Fexofenadine HCl] equal to or greater than 0.5?
condition met

Quick check: does Cc1cccc(CN2CCN(C(c3ccccc3)c3ccc(Cl)cc3)CC2)c1 (centres undefined) [Meclozine dihydrochloride] have growth greater than or equal to 0.5?
condition not met

I'd appreciate it if you could say whether CCN1CCC[C@H]1CNC(=O)c1c(OC)ccc(Br)c1OC [Remoxipride Hydrochloride] has growth at least equal to 0.5.
condition met

Does the compound O=c1[nH]c(=O)n([C@H]2C[C@H](O)[C@@H](CO)O2)cc1C(F)(F)F [Trifluridine] have recorded growth that is 0.5 or more?
condition not met
